Values from ChEMBL document CHEMBL5346877

System: LAPC4
Experiment: Inhibition of colony formation in human LAPC4 cells at 10 uM incubated for 10 days by crystal violet staining based assay
Assay type: functional
Conditions: LAPC4, 240 h, time 10 day
metric.name: inhibition at 10 µM (%)
Write the number in % without appending the unit.

Worked cases, inhibition at 10 µM given:
cpd_smiles=COc1ccc(-n2cc3c(n2)C[C@@H]2CC[C@@H]4[C@H](CC[C@]5(C)[C@@H](O)CC[C@@H]45)[C@@]2(C)C3)cc1 metric_name="inhibition at 10 µM" measured_result=65
cpd_smiles=Cn1nc2c(c1-c1ccccc1)C[C@@]1(C)[C@@H](CC[C@@H]3[C@@H]1CC[C@]1(C)[C@@H](O)CC[C@@H]31)C2 metric_name="inhibition at 10 µM" measured_result=2

Shift focus to the following entry.
Q: What value of inhibition at 10 µM has been recorded for this entry: C[C@]12Cc3cn(-c4ccc(F)cc4)nc3C[C@@H]1CC[C@@H]1[C@@H]2CC[C@]2(C)[C@@H](O)CC[C@@H]12
Ans: 66

* * *

Test system: LAPC4
Experiment: Inhibition of colony formation in human LAPC4 cells at 10 uM incubated for 10 days by crystal violet staining based assay
Assay type: functional
Conditions: LAPC4, 240 h, time 10 day
metric.name: inhibition at 10 µM (%)
Your answer should be a plain number; it is taken to be in %.

Worked examples, 2 compounds total:
compound="CNC(=O)c1ccc(N2C(=S)N(c3ccc(C#N)c(C(F)(F)F)c3)C(=O)C2(C)C)cc1F [ENZALUTAMIDE]" metric_name="inhibition at 10 µM" unit_of_measure=% measured_result=44
compound=Cc1c2c(nn1-c1ccc(Cl)cc1)C[C@@H]1CC[C@@H]3[C@H](CC[C@]4(C)[C@@H](O)CC[C@@H]34)[C@@]1(C)C2 metric_name="inhibition at 10 µM" unit_of_measure=% measured_result=4

Then this compound:
Q: Need inhibition at 10 µM of COc1ccc(-n2ncc3c2C[C@@H]2CC[C@@H]4[C@H](CC[C@]5(C)[C@@H](O)CC[C@@H]45)[C@@]2(C)C3)cc1 , thanks.
Ans: 0

* * *

Tested on: LAPC4
Assay: Inhibition of colony formation in human LAPC4 cells at 5 uM incubated for 10 days by crystal violet staining based assay
Assay type: functional, cell-based
Details: time 10.0 day
Activity calls are given as the source filed them. The calls are words filed in the database; no cut-off is given here.
metric.name: inhibition

Reference set, count: 4
cpd_smiles=Cc1c2c(nn1-c1ccc(C#N)cc1)C[C@@H]1CC[C@@H]3[C@H](CC[C@]4(C)[C@@H](O)CC[C@@H]34)[C@@]1(C)C2 metric_name=inhibition measured_result=Active
cpd_smiles=Cc1c2c(nn1-c1ccc([N+](=O)[O-])cc1)C[C@@H]1CC[C@@H]3[C@H](CC[C@]4(C)[C@@H](O)CC[C@@H]34)[C@@]1(C)C2 metric_name=inhibition measured_result=Active
cpd_smiles=COc1ccc(-n2nc3c(c2C)C[C@@]2(C)[C@@H](CC[C@@H]4[C@@H]2CC[C@]2(C)[C@@H](O)CC[C@@H]42)C3)cc1 metric_name=inhibition measured_result=Active
cpd_smiles=Cn1nc2c(c1-c1ccccc1)C[C@@]1(C)[C@@H](CC[C@@H]3[C@@H]1CC[C@]1(C)[C@@H](O)CC[C@@H]31)C2 metric_name=inhibition measured_result=Active

Q: Item under review: Cn1nc2c(c1-c1ccc(Cl)cc1)C[C@@]1(C)[C@@H](CC[C@@H]3[C@@H]1CC[C@]1(C)C(=O)CC[C@@H]31)C2 . Reported inhibition?
Ans: Active

Q: Which inhibition is reported for this molecule? Cn1nc2c(c1-c1cccs1)C[C@@]1(C)[C@@H](CC[C@@H]3[C@@H]1CC[C@]1(C)C(=O)CC[C@@H]31)C2
Ans: Active

* * *

Parameter: viability at 20 µM. Scope: all listed entries.
Tested on: CWR22R
Experiment: Cytotoxicity against human 22Rv1 cells assessed as cell viability at 20 uM incubated for 72 hrs by resazurin dye based microplate reader assay
Format: functional
Details: read-out: Activity
Your answer is read as %, so omit the unit and give the number.

The following molecules have reported results that may help.
molecule=Cc1c2c(nn1-c1ccc(Br)cc1)C[C@@H]1CC[C@@H]3[C@H](CC[C@]4(C)[C@@H](O)CC[C@@H]34)[C@@]1(C)C2 metric_name="viability at 20 µM" unit_of_measure=% measured_result=50
molecule="C[C@]12CC[C@H](O)CC1=CC[C@@H]1[C@@H]2CC[C@]2(C)C(n3cnc4ccccc43)=CC[C@@H]12 [GALETERONE]" metric_name="viability at 20 µM" unit_of_measure=% measured_result=95

Q: # query: viability at 20 µM of entry Cn1nc2c(c1-c1ccc(F)cc1)C[C@@]1(C)[C@@H](CC[C@@H]3[C@@H]1CC[C@]1(C)[C@@H](O)CC[C@@H]31)C2
Ans: 26

Q: Value lookup for viability at 20 µM; key = Cn1nc2c(c1-c1ccc(Br)cc1)C[C@@]1(C)[C@@H](CC[C@@H]3[C@@H]1CC[C@]1(C)[C@@H](O)CC[C@@H]31)C2
Ans: 21

Q: Requested field: viability at 20 µM. Item: C[C@]12Cc3c(nn(-c4ccccc4)c3-c3ccccc3)C[C@@H]1CC[C@@H]1[C@@H]2CC[C@]2(C)[C@@H](O)CC[C@@H]12
Ans: 47

Q: Which measured viability at 20 µM value corresponds to C[C@]12Cc3cnn(-c4ccc(Br)cc4)c3C[C@@H]1CC[C@@H]1[C@@H]2CC[C@]2(C)[C@@H](O)CC[C@@H]12 ?
Ans: 62

Q: I would be grateful if you could share the reported viability at 20 µM for C[C@]12Cc3c(nn(-c4ccccc4)c3-c3ccccc3)C[C@@H]1CC[C@@H]1[C@@H]2CC[C@]2(C)C(=O)CC[C@@H]12 .
Ans: 19

Q: Which measured viability at 20 µM value corresponds to Cc1c2c(nn1-c1ccc(C#N)cc1)C[C@@H]1CC[C@@H]3[C@H](CC[C@]4(C)[C@@H](O)CC[C@@H]34)[C@@]1(C)C2 ?
Ans: 43

Q: Give its viability at 20 µM value. Item: Cc1c2c(nn1C)C[C@@H]1CC[C@@H]3[C@H](CC[C@]4(C)[C@@H](O)CC[C@@H]34)[C@@]1(C)C2
Ans: 52

Q: # viability at 20 µM lookup, item Cc1c2c(nn1-c1ccc([N+](=O)[O-])cc1)C[C@@H]1CC[C@@H]3[C@H](CC[C@]4(C)[C@@H](O)CC[C@@H]34)[C@@]1(C)C2
Ans: 58

Q: Query (molecule): Cc1c2c(nn1-c1ccc(C#N)cc1)C[C@@H]1CC[C@@H]3[C@H](CC[C@]4(C)C(=O)CC[C@@H]34)[C@@]1(C)C2 ; field requested: viability at 20 µM
Ans: 87

* * *

Tested on: CWR22R
Test: Cytotoxicity against human 22Rv1 cells assessed as cell viability at 20 uM incubated for 72 hrs by resazurin dye based microplate reader assay
Assay type: functional
Conditions: read-out: Activity
Catalogue of molecules with associated viability at 20 µM
Write down the numeric answer in % and omit the unit.

For orientation, consider the following solved cases.
cpd_smiles=Cn1nc2c(c1-c1ccc(Cl)cc1)C[C@@]1(C)[C@@H](CC[C@@H]3[C@@H]1CC[C@]1(C)[C@@H](O)CC[C@@H]31)C2 measured_result=29
cpd_smiles=Cc1c2c(nn1-c1ccc(Cl)cc1)C[C@@H]1CC[C@@H]3[C@H](CC[C@]4(C)C(=O)CC[C@@H]34)[C@@]1(C)C2 measured_result=75

In the following, a different molecule is considered.
Q: Suppose we examine the molecule Cc1ccc(-n2nc3c(c2C)C[C@@]2(C)[C@@H](CC[C@@H]4[C@@H]2CC[C@]2(C)C(=O)CC[C@@H]42)C3)cc1 ; what viability at 20 µM value has been reported?
Ans: 97

* * *

Tested on: CWR22R
Assay: Cytotoxicity against human 22Rv1 cells assessed as cell viability at 20 uM incubated for 72 hrs by resazurin dye based microplate reader assay
Type: functional
Settings: read-out: Activity
metric.name: viability at 20 µM (%)
The answer is to be given in %; state only the numeric part.

Q: Short answer please: viability at 20 µM, CWR22R, entry C[C@]12Cc3cnn(-c4ccc([N+](=O)[O-])cc4)c3C[C@@H]1CC[C@@H]1[C@@H]2CC[C@]2(C)[C@@H](O)CC[C@@H]12
Ans: 97

Q: Value wanted: viability at 20 µM (CWR22R) of entry Cn1nc2c(c1-c1ccccc1)C[C@@]1(C)[C@@H](CC[C@@H]3[C@@H]1CC[C@]1(C)C(=O)CC[C@@H]31)C2
Ans: 68

Q: Given the entry Cc1ccc(-n2nc3c(c2C)C[C@@]2(C)[C@@H](CC[C@@H]4[C@@H]2CC[C@]2(C)[C@@H](O)CC[C@@H]42)C3)cc1 , what viability at 20 µM was observed with CWR22R?
Ans: 37

Q: Please tell me: viability at 20 µM of C[C@]12Cc3cnn(-c4ccc(C#N)cc4)c3C[C@@H]1CC[C@@H]1[C@@H]2CC[C@]2(C)[C@@H](O)CC[C@@H]12 , system CWR22R?
Ans: 65
